From: DBAASP

Observed MIC, system Klebsiella pneumoniae ATCC 13883.
Your answer is read as µM, so omit the unit and give the number.

Klebsiella pneumoniae ATCC 13883 MIC of CC(C)C[C@H](NC(=O)[C@H](CC(C)C)NC(=O)[C@H](CCCCN)NC(=O)CNC(=O)[C@H](CC(C)C)NC(=O)[C@H](C)NC(=O)[C@H](CCCCN)NC(=O)[C@H](CC(C)C)NC(=O)[C@H](C)NC(=O)[C@H](CO)NC(=O)[C@H](CC(C)C)NC(=O)[C@H](C)NC(=O)CN)C(N)=O is 25

Klebsiella pneumoniae ATCC 13883 MIC of CC(C)C[C@H](NC(=O)[C@@H](NC(=O)[C@H](CCC(N)=O)NC(=O)[C@H](CCCCN)NC(=O)[C@H](Cc1cnc[nH]1)NC(=O)[C@H](CC(C)C)NC(=O)[C@H](C)NC(=O)[C@@H](NC(=O)[C@H](CC(C)C)NC(=O)[C@H](CCCCN)NC(=O)[C@H](CC(C)C)NC(=O)[C@@H](N)CCCCN)C(C)C)C(C)C)C(N)=O is 18

Klebsiella pneumoniae ATCC 13883 MIC of CC(C)C[C@H](NC(=O)[C@H](CC(C)C)NC(=O)[C@H](CCCCN)NC(=O)CNC(=O)[C@H](CC(C)C)NC(=O)[C@H](CO)NC(=O)[C@H](CC(C)C)NC(=O)[C@H](CO)NC(=O)[C@H](CC(C)C)NC(=O)[C@H](CC(C)C)NC(=O)CN)C(N)=O is 25

====

Observed MIC, system Bacillus subtilis 168.
Your answer is read as µM, so omit the unit and give the number.

# Compound, Measured on, Unit string, Measured number
rows = [
    ("CC[C@H](C)[C@H](N)C(=O)N[C@@H](CCCCN)C(=O)N[C@@H](Cc1c[nH]c2ccccc12)C(=O)N[C@@H](CCCCN)C(=O)N[C@@H](CCCCN)C(=O)N[C@@H](CC(C)C)C(=O)N[C@@H](CC(C)C)C(=O)N[C@@H](CCCN=C(N)N)C(=O)N[C@@H](C)C(=O)N[C@@H](C)C(=O)N[C@@H](CCCCN)C(=O)N[C@@H](CCCN=C(N)N)C(=O)N[C@H](C(=O)N[C@@H](CC(C)C)C(N)=O)[C@@H](C)CC [IKWKKLLRAAKRIL]", "Bacillus subtilis 168", "µM", 12.5),
]

Now consider the entry below.
Just so you know, measured MIC for CC[C@H](C)[C@H](NC(=O)[C@H](CC(C)C)NC(=O)[C@H](Cc1cnc[nH]1)NC(=O)CNC(=O)[C@H](CC(C)C)NC(=O)[C@@H](NC(=O)[C@H](CCCCN)NC(=O)[C@@H]1CCCN1C(=O)[C@H](Cc1c[nH]c2ccccc12)NC(=O)[C@H](CCSC)NC(=O)CN)[C@@H](C)CC)C(=O)N[C@@H](CCCN=C(N)N)C(N)=O [GMWPKILGHLIR] came out at 3

====

Overview of recorded MIC for various compounds
test system: Pseudomonas aeruginosa H103; assay: ≥ marks a high value that may be exact or a test limit, other limits are often not marked, values filed in µg/mL are converted to µM

Just so you know, measured MIC for CC[C@H](C)[C@H](N)C(=O)N[C@@H](CC(C)C)C(=O)N1CCC[C@H]1C(=O)N[C@@H](Cc1c[nH]c2ccccc12)C(=O)N[C@@H](CCCCN)C(=O)N[C@@H](Cc1c[nH]c2ccccc12)C(=O)N[C@@H](CCCN=C(N)N)C(=O)N[C@@H](Cc1c[nH]c2ccccc12)C(=O)N[C@@H](Cc1c[nH]c2ccccc12)C(=O)N[C@@H](CCCCN)C(=O)N[C@@H](Cc1c[nH]c2ccccc12)C(=O)N[C@@H](CCCN=C(N)N)C(=O)N[C@@H](CCCN=C(N)N)C(=O)O came out at 5.7 µM

Just so you know, measured MIC for CC[C@H](C)[C@H](NC(=O)[C@H](CCCCN)NC(=O)[C@H](Cc1c[nH]c2ccccc12)NC(=O)[C@@H](NC(=O)[C@@H](N)CCCN=C(N)N)[C@@H](C)CC)C(=O)N[C@@H](Cc1c[nH]c2ccccc12)C(=O)N[C@@H](Cc1c[nH]c2ccccc12)C(=O)N[C@@H](CCCCN)C(=O)N[C@@H](CCCN=C(N)N)C(=O)O came out at ≥ 46.7 µM

Just so you know, measured MIC for CC[C@H](C)[C@H](NC(=O)[C@H](CCCCN)NC(=O)[C@@H](NC(=O)[C@@H](NC(=O)[C@H](CCCN=C(N)N)NC(=O)[C@H](C)NC(=O)[C@H](CC(C)C)NC(=O)[C@@H](N)CCCN=C(N)N)[C@@H](C)CC)C(C)C)C(=O)N[C@@H](CCCN=C(N)N)C(=O)N[C@H](C(=O)N[C@@H](C)C(=O)N[C@@H](CCCN=C(N)N)C(N)=O)C(C)C came out at 21.4 µM

Just so you know, measured MIC for CC[C@H](C)[C@H](NC(=O)[C@@H](NC(=O)[C@H](Cc1c[nH]c2ccccc12)NC(=O)[C@@H](NC(=O)[C@@H](N)CCCN=C(N)N)[C@@H](C)CC)C(C)C)C(=O)N[C@@H](Cc1c[nH]c2ccccc12)C(=O)N[C@@H](CCCN=C(N)N)C(=O)N[C@@H](CCCN=C(N)N)C(N)=O came out at 6.75 µM

====

Observed MIC, system Candida albicans ATCC 10231.
Your answer is read as µM, so omit the unit and give the number.

# Molecular string, MIC / µM
rows = [
    ("C[C@H](N)C(=O)N[C@@H](CCCN=C(N)N)C(=O)N[C@@H](Cc1c[nH]c2ccccc12)C(=O)N[C@@H](CCCN=C(N)N)C(=O)N[C@@H](Cc1ccccc1)C(=O)N[C@@H](CCCCN)C(=O)N[C@@H](Cc1c[nH]c2ccccc12)C(=O)N[C@@H](C)C(=O)N[C@@H](CCCCN)C(=O)N[C@@H](CCCCN)C(=O)O", 54.5),
    ("C[C@H](NC(=O)[C@H](CCCCN)NC(=O)[C@H](Cc1c[nH]c2ccccc12)NC(=O)[C@H](Cc1c[nH]c2ccccc12)NC(=O)[C@H](Cc1c[nH]c2ccccc12)NC(=O)[C@@H]1CCCN1C(=O)[C@H](CCCCN)NC(=O)[C@H](CCCCN)NC(=O)CN)C(=O)N[C@@H](CCCCN)C(N)=O", 23.8),
]

Now consider the entry below.
Just so you know, measured MIC for CC(C)C[C@H](NC(=O)[C@H](C)NC(=O)[C@H](CO)NC(=O)[C@@H](NC(=O)[C@@H](NC(=O)[C@H](CO)NC(=O)[C@H](CCCCN)NC(=O)[C@@H](NC(=O)[C@H](CC(C)C)NC(=O)CNC(=O)[C@H](CC(C)C)NC(=O)[C@H](CC(C)C)NC(=O)[C@H](CC(=O)O)NC(=O)[C@@H](N)Cc1ccccc1)C(C)C)C(C)C)C(C)C)C(N)=O came out at 100

====

tested on: Bacillus subtilis ATCC 6633
Overview of recorded MIC for various molecules
Your answer is read as µM, so omit the unit and give the number.

# Molecular string, MIC, µM
rows = [
    ("C[C@H](NC(=O)[C@H](Cc1c[nH]c2ccccc12)NC(=O)[C@H](CCCCN)NC(=O)[C@H](C)NC(=O)[C@@H](N)Cc1ccccc1)C(=O)N[C@@H](Cc1ccccc1)C(=O)N[C@@H](CCCCN)C(=O)N[C@@H](Cc1c[nH]c2ccccc12)C(=O)N[C@@H](C)C(=O)N[C@@H](CCCCN)C(=O)N[C@@H](CCCCN)C(N)=O", 17.7),
]

Now consider the entry below.
Bacillus subtilis ATCC 6633 MIC of CC[C@H](C)[C@H](NC(=O)CNC(=O)[C@H](C)NC(=O)[C@@H](NC(=O)[C@H](CC(C)C)NC(=O)CNC(=O)[C@@H]1CCCN1C(=O)[C@H](CC(C)C)NC(=O)[C@@H](N)Cc1ccccc1)[C@@H](C)CC)C(=O)N[C@@H](C)C(=O)N[C@@H](CCCCN)C(=O)N[C@@H](CCSC)C(=O)N[C@@H](CC(C)C)C(N)=O is 18.6

====

test system: Micrococcus luteus ATCC 4698
Reported endpoint: MIC (µM)
Your answer is read as µM, so omit the unit and give the number.

Just so you know, measured MIC for CC(C)C[C@H](NC(=O)[C@H](C)NC(=O)CNC(=O)[C@H](CC(C)C)NC(=O)[C@@H](N)Cc1ccccc1)C(=O)N[C@@H](Cc1ccccc1)C(=O)N[C@@H](CCCCN)C(=O)N[C@@H](C)C(=O)N[C@@H](CC(C)C)C(=O)N[C@@H](CO)C(=O)N[C@@H](CCCCN)C(=O)N[C@@H](CC(C)C)C(=O)N[C@H](C(=O)O)C(C)C came out at 4.27

====

tested on: Pseudomonas aeruginosa ATCC 27853; assay: ≥ marks a high value that may be exact or a test limit, other limits are often not marked, values filed in µg/mL are converted to µM
Reported endpoint: MIC (µM)
Your answer is read as µM, so omit the unit and give the number.

# Molecular string, MIC / µM
rows = [
    ("CC[C@H](C)[C@H](NC(=O)[C@H](CCCCN)NC(=O)[C@H](CCCCN)NC(=O)[C@H](Cc1ccccc1)NC(=O)[C@H](CC(C)C)NC(=O)[C@H](CCCCN)NC(=O)[C@H](CCCCN)NC(=O)[C@@H](N)Cc1c[nH]c2ccccc12)C(=O)N[C@@H](CC(C)C)C(=O)N[C@@H](CCCCN)C(=O)N[C@@H](Cc1ccc(O)cc1)C(=O)N[C@@H](CC(C)C)C(N)=O", 2.11),
]

Now consider the entry below.
Pseudomonas aeruginosa ATCC 27853 MIC of CC(C)C[C@H](NC(=O)[C@H](Cc1c[nH]c2ccccc12)NC(=O)[C@H](CCCCN)NC(=O)[C@H](CC(C)C)NC(=O)[C@H](CC(C)C)NC(=O)[C@H](Cc1c[nH]c2ccccc12)NC(=O)[C@H](CCCCN)NC(=O)[C@H](CC(C)C)NC(=O)[C@@H](N)CC(C)C)C(=O)N[C@@H](CCCCN)C(=O)N[C@@H](CCCCN)C(N)=O is 6.81
